Biological target: ZAP-70 (Homo sapiens, UniProt P43403)
Construct: purchased Eurofins Pharma Discovery Services (KinaseProfiler; Cerep BioPrint panel)
Sequence (P43403 1-619): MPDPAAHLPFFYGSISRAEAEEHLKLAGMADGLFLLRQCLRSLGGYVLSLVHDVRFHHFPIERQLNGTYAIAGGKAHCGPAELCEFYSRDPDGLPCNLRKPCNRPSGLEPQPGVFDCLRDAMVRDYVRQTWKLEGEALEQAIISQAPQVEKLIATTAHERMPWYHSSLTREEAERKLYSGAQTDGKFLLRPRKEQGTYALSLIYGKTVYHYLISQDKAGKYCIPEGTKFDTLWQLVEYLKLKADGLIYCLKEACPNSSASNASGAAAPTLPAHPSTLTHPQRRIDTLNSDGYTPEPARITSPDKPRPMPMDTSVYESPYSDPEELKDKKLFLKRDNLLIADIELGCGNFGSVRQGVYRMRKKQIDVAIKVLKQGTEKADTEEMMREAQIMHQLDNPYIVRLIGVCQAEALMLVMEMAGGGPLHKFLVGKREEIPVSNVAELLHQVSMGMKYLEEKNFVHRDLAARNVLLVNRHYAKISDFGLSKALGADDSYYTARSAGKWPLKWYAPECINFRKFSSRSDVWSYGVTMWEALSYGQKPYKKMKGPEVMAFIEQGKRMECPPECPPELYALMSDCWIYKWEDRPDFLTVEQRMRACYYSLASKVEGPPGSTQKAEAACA
Experiment: kinase selectivity panel
Type: biochemical
Settings: read-out: percentage of control activity (POC), ZAP-70
PROPERTY: remaining activity at 10 µM (%)

1) CC(C)(C)N1CCC(c2cc(-c3ccc(F)cc3Cl)c3cc[n+]([O-])c(-c4c(Cl)cccc4Cl)c3n2)CC1 [compound 2] = 105
2) Cc1ccc(C(=O)NCC2CC2)cc1-c1ccc2c(c1)NC(=O)C21CCCC1 [compound 3] = 97
3) Cn1cc(-c2cccc(-c3nc(C(=O)NC4C5CC6CC4CC(O)(C6)C5)c(N)nc3N)c2)cn1 (centres unmarked) [compound 4] = 104
4) CS(=O)(=O)N1CCN(c2ccc(Nc3ncc(C(N)=O)c(NC4CC4)n3)cc2)CC1 [compound 5] = 53
5) COc1c(NC(=O)c2ccc(C)c(-c3nnc4c(NCC(C)(C)C)nccn34)c2)cc(C(C)(C)C)cc1NS(C)(=O)=O [compound 7, reference compound] = 104

====

target: Fms (Homo sapiens); construct: purchased Eurofins Pharma Discovery Services (KinaseProfiler; Cerep BioPrint panel); assay: kinase selectivity panel; assay type: biochemical; settings: read-out: percentage of control activity (POC), Fms
Sequence (P07333 20-972): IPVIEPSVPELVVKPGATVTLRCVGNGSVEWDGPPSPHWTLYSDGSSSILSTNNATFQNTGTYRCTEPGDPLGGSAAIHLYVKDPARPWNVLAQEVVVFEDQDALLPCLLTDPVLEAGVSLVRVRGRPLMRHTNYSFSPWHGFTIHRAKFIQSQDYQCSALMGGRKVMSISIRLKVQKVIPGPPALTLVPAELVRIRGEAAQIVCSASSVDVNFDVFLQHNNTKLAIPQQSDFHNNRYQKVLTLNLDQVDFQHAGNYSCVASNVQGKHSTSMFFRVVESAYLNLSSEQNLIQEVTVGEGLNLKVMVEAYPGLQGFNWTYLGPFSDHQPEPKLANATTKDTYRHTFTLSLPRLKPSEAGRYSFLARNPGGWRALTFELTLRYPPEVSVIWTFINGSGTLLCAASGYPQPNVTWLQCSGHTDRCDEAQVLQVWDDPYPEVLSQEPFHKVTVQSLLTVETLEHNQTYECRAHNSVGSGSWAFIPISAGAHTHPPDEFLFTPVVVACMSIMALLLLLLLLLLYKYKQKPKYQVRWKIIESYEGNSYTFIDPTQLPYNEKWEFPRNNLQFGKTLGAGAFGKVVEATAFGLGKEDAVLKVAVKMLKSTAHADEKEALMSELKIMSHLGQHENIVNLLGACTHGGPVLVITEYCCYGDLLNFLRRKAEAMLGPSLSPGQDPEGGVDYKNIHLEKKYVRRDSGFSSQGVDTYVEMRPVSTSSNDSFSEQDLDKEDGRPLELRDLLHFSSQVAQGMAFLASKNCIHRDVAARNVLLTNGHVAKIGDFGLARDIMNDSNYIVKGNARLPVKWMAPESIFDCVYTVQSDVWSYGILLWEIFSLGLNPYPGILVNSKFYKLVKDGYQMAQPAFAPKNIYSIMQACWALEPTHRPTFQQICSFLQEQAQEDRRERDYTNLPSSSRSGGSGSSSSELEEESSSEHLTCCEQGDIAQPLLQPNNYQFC
Below, each of the compounds is paired with its reported remaining activity at 10 µM value.
PROPERTY: remaining activity at 10 µM (%)

1) Cc1ccc(C(=O)NCC2CC2)cc1-c1ccc2c(c1)NC(=O)C21CCCC1 = 47
2) COc1c(NC(=O)c2ccc(C)c(-c3nnc4c(NCC(C)(C)C)nccn34)c2)cc(C(C)(C)C)cc1NS(C)(=O)=O [compound 7, reference compound] = 26
3) Cn1cc(-c2cccc(-c3nc(C(=O)NC4C5CC6CC4CC(O)(C6)C5)c(N)nc3N)c2)cn1 (centres unmarked) = 63
4) CS(=O)(=O)N1CCN(c2ccc(Nc3ncc(C(N)=O)c(NC4CC4)n3)cc2)CC1 = -2
5) CC(C)(C)N1CCC(c2cc(-c3ccc(F)cc3Cl)c3cc[n+]([O-])c(-c4c(Cl)cccc4Cl)c3n2)CC1 = 100

====

target: EphA5 (Homo sapiens); construct: purchased Eurofins Pharma Discovery Services (KinaseProfiler; Cerep BioPrint panel); experiment: kinase selectivity panel; format: biochemical; conditions: read-out: percentage of control activity (POC), EphA5
Sequence (P54756 25-1037): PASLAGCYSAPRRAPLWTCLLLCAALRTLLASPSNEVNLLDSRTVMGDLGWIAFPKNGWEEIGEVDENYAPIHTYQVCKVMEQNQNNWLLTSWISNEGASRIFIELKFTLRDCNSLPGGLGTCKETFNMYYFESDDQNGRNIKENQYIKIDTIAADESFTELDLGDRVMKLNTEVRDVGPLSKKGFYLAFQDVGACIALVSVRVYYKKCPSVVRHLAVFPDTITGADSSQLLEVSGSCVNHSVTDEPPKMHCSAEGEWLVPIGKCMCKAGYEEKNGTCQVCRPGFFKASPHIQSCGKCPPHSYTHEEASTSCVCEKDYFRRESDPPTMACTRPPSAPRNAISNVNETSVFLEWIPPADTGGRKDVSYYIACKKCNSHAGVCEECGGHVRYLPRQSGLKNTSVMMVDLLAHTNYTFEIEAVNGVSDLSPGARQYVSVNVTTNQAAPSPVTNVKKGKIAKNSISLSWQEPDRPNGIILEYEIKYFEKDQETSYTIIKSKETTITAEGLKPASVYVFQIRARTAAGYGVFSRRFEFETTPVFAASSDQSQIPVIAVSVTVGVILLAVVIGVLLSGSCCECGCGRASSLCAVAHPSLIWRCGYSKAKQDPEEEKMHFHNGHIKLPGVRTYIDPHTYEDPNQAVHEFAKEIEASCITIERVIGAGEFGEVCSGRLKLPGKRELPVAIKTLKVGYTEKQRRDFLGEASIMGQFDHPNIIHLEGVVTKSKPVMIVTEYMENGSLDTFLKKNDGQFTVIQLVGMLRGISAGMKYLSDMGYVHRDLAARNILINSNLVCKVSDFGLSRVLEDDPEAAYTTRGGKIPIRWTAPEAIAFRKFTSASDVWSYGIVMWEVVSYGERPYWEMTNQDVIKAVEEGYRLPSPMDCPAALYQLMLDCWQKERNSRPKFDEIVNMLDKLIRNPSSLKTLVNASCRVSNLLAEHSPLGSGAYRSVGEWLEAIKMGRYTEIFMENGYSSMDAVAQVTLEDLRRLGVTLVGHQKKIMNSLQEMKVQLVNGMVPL
Checkbox rule: remaining activity at 10 µM lower than 60% = yes; remaining activity at 10 µM not lower than 60% = no.

1. COc1c(NC(=O)c2ccc(C)c(-c3nnc4c(NCC(C)(C)C)nccn34)c2)cc(C(C)(C)C)cc1NS(C)(=O)=O [compound 7, reference compound] = no
2. CC(C)(C)N1CCC(c2cc(-c3ccc(F)cc3Cl)c3cc[n+]([O-])c(-c4c(Cl)cccc4Cl)c3n2)CC1 [compound 2] = no
3. Cn1cc(-c2cccc(-c3nc(C(=O)NC4C5CC6CC4CC(O)(C6)C5)c(N)nc3N)c2)cn1 (centres unmarked) [compound 4] = no
4. Cc1ccc(C(=O)NCC2CC2)cc1-c1ccc2c(c1)NC(=O)C21CCCC1 [compound 3] = no
5. CS(=O)(=O)N1CCN(c2ccc(Nc3ncc(C(N)=O)c(NC4CC4)n3)cc2)CC1 [compound 5] = yes

====

target: MEK1 (Homo sapiens); construct: purchased Eurofins Pharma Discovery Services (KinaseProfiler; Cerep BioPrint panel); assay: kinase selectivity panel; type: biochemical; conditions: read-out: percentage of control activity (POC), MEK1
Sequence (Q02750 whole entry): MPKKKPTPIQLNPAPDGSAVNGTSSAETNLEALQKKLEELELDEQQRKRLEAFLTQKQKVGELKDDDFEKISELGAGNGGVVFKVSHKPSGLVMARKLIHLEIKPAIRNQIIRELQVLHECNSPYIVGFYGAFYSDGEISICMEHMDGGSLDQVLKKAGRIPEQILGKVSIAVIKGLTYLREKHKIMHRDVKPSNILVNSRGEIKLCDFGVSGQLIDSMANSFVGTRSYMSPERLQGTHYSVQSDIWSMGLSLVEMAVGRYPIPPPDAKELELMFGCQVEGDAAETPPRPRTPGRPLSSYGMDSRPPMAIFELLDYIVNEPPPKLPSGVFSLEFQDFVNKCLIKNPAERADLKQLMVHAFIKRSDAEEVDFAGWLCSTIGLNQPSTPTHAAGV
Each item that follows carries a reported remaining activity at 10 µM.
PROPERTY: remaining activity at 10 µM

1. CC(C)(C)N1CCC(c2cc(-c3ccc(F)cc3Cl)c3cc[n+]([O-])c(-c4c(Cl)cccc4Cl)c3n2)CC1 = 112%
2. Cn1cc(-c2cccc(-c3nc(C(=O)NC4C5CC6CC4CC(O)(C6)C5)c(N)nc3N)c2)cn1 (centres unmarked) = 97%
3. Cc1ccc(C(=O)NCC2CC2)cc1-c1ccc2c(c1)NC(=O)C21CCCC1 = 94%
4. COc1c(NC(=O)c2ccc(C)c(-c3nnc4c(NCC(C)(C)C)nccn34)c2)cc(C(C)(C)C)cc1NS(C)(=O)=O [compound 7, reference compound] = 107%
5. CS(=O)(=O)N1CCN(c2ccc(Nc3ncc(C(N)=O)c(NC4CC4)n3)cc2)CC1 = 13%

====

molecular target: CK1δ (Homo sapiens, UniProt P48730); construct: purchased Eurofins Pharma Discovery Services (KinaseProfiler; Cerep BioPrint panel); experiment: kinase selectivity panel; assay type: biochemical; details: read-out: percentage of control activity (POC), CK1δ
Sequence (P48730 whole entry): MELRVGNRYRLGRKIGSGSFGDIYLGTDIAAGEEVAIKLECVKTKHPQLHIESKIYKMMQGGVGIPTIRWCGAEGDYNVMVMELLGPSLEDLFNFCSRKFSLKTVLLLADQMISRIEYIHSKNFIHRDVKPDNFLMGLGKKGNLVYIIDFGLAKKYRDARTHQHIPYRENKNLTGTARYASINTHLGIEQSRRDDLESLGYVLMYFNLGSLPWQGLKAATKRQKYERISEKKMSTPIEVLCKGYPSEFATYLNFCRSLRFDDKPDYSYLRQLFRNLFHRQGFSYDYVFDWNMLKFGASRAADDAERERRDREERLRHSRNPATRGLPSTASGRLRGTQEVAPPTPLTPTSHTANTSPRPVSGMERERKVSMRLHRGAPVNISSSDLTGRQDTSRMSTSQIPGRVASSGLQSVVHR
Listed compounds paired with reported remaining activity at 10 µM
PROPERTY: remaining activity at 10 µM (%)

1. COc1c(NC(=O)c2ccc(C)c(-c3nnc4c(NCC(C)(C)C)nccn34)c2)cc(C(C)(C)C)cc1NS(C)(=O)=O [compound 7, reference compound] = 111
2. Cn1cc(-c2cccc(-c3nc(C(=O)NC4C5CC6CC4CC(O)(C6)C5)c(N)nc3N)c2)cn1 (centres unmarked) = 50
3. Cc1ccc(C(=O)NCC2CC2)cc1-c1ccc2c(c1)NC(=O)C21CCCC1 = 100
4. CS(=O)(=O)N1CCN(c2ccc(Nc3ncc(C(N)=O)c(NC4CC4)n3)cc2)CC1 = 23
5. CC(C)(C)N1CCC(c2cc(-c3ccc(F)cc3Cl)c3cc[n+]([O-])c(-c4c(Cl)cccc4Cl)c3n2)CC1 = 110

====

target: Aurora-A (Homo sapiens, UniProt O14965); construct: purchased Eurofins Pharma Discovery Services (KinaseProfiler; Cerep BioPrint panel); test: kinase selectivity panel; type: biochemical; conditions: read-out: percentage of control activity (POC), Aurora-A
Sequence (O14965 whole entry): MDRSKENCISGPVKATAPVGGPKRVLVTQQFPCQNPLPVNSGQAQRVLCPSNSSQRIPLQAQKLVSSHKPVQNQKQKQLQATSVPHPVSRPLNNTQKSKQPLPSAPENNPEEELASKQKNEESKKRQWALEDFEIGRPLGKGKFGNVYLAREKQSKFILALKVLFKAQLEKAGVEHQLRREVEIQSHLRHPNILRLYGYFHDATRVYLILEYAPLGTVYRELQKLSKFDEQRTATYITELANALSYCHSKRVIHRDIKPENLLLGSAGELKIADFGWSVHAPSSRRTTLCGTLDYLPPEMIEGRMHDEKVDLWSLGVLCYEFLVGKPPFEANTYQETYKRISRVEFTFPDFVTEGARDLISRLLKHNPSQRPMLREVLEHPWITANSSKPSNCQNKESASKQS
The compounds listed here are annotated with their remaining activity at 10 µM.
PROPERTY: remaining activity at 10 µM (%)

1. CC(C)(C)N1CCC(c2cc(-c3ccc(F)cc3Cl)c3cc[n+]([O-])c(-c4c(Cl)cccc4Cl)c3n2)CC1 = 112
2. CS(=O)(=O)N1CCN(c2ccc(Nc3ncc(C(N)=O)c(NC4CC4)n3)cc2)CC1 = 2
3. Cn1cc(-c2cccc(-c3nc(C(=O)NC4C5CC6CC4CC(O)(C6)C5)c(N)nc3N)c2)cn1 (stereo not drawn) = 89
